# Tested On: Melanocyte-stimulating hormone receptor (Homo sapiens)
# Sequence (Q01726 whole entry): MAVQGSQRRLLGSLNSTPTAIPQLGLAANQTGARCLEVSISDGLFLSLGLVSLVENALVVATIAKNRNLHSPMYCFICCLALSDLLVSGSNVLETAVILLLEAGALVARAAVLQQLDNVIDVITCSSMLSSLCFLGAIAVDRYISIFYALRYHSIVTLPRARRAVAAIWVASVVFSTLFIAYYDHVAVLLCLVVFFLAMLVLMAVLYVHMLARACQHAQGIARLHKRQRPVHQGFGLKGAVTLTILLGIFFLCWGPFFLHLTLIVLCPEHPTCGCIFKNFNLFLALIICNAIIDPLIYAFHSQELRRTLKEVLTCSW
# Protocol Text: Activity against hMC1R transfected in HEK293 cells by intracellular cAMP accumulation
pEC50: −log10 of the molar value.
Listed compounds paired with reported pEC50

Example compounds with recorded pEC50:
- CCCC[C@@H]1NC(=O)CC[C@@H](C(N)=O)NC(=O)[C@H](Cc2c[nH]c3ccccc23)NC(=O)[C@H](CCCN=C(N)N)NC(=O)[C@@H](Cc2ccc3ccccc3c2)NC(=O)[C@H](CCC(N)=O)NC1=O: < 6.00
- CCCC[C@@H]1NC(=O)CC[C@@H](C(N)=O)NC(=O)[C@H](Cc2c[nH]c3ccccc23)NC(=O)[C@H](CCCN=C(N)N)NC(=O)[C@@H](Cc2ccccc2)NC(=O)[C@H](Cc2c[nH]cn2)NC1=O: < 5.00
- CCCC[C@@H]1NC(=O)CC[C@@H](C(N)=O)NC(=O)[C@H](Cc2c[nH]c3ccccc23)NC(=O)[C@H](CCCN=C(N)N)NC(=O)[C@@H](Cc2ccccc2)NC(=O)[C@H](CC(=O)O)NC1=O: < 5.00

I have this compound here, `CCCC[C@@H]1NC(=O)CC[C@@H](C(N)=O)NC(=O)[C@H](Cc2c[nH]c3ccccc23)NC(=O)[C@H](CCCN=C(N)N)NC(=O)[C@@H](Cc2ccc3ccccc3c2)NC(=O)[C@H](CCCN=C(N)N)NC1=O` , and I need its recorded pEC50.
< 5.00

Would you kindly repeat that for `CCCC[C@@H]1NC(=O)CC[C@@H](C(N)=O)NC(=O)[C@H](Cc2c[nH]c3ccccc23)NC(=O)[C@H](CCCN=C(N)N)NC(=O)[C@@H](Cc2ccc3ccccc3c2)NC(=O)[C@H](Cc2cnc[nH]2)NC1=O` ?
< 5.00

Would you kindly repeat that for `CCCC[C@@H]1NC(=O)CC[C@@H](C(N)=O)NC(=O)[C@H](Cc2c[nH]c3ccccc23)NC(=O)[C@H](CCCN=C(N)N)NC(=O)[C@@H](Cc2ccccc2)NC(=O)[C@@H]2CCCN2C1=O` ?
< 5.00

Would you kindly repeat that for `CCCC[C@@H]1NC(=O)CC[C@@H](C(N)=O)NC(=O)[C@H](Cc2c[nH]c3ccccc23)NC(=O)[C@H](CCCN=C(N)N)NC(=O)[C@@H](Cc2ccccc2)NC(=O)[C@H](CCC(N)=O)NC1=O` ?
6.00

Would you kindly repeat that for `CCCC[C@@H]1NC(=O)CC[C@@H](C(N)=O)NC(=O)[C@H](Cc2c[nH]c3ccccc23)NC(=O)[C@H](CCCN=C(N)N)NC(=O)[C@@H](Cc2ccc3ccccc3c2)NC(=O)[C@H](CCCC)NC1=O` ?
< 6.00

Would you kindly repeat that for `CCCC[C@@H]1NC(=O)CC[C@@H](C(N)=O)NC(=O)[C@H](Cc2c[nH]c3ccccc23)NC(=O)[C@H](CCCN=C(N)N)NC(=O)[C@@H](Cc2ccc3ccccc3c2)NC(=O)[C@@H]2CCCN2C1=O` ?
< 5.00
